Values from PubChem BioAssay

tested on: Human papillomavirus type 1a protein E7 (residues 44-93); assay: small molecules binding HPV E7 44-93 – biochemical, small-molecule microarray, residues 44-93, 635 nm fluorescence, primary screen (AID 1108); settings: fluorescence 635 nm, higher = more signal;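 note: E7 fragment applied at 1 µg/mL in TBST for 1 h at 4 C; score combines spot fluorescence with its signal to noise ratio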
Please note: Fulfilled applies when composite z-score is 0.3 or greater, and Not fulfilled applies otherwise.

| compound | assayedSystem | classLabel |
| --- | --- | --- |
| C=CCCN(CC#C[C@H]1Oc2ccccc2S(=O)(=O)N2CCC[C@@H]12)S(=O)(=O)c1ccc(C)cc1 | Human papillomavirus type 1a protein E7 (residues 44-93) | Fulfilled |
| Cc1ccc(S[C@]2(C(=O)NCc3ccccc3)CC(=O)N(Cc3cc(C(F)(F)F)cc(C(F)(F)F)c3)[C@@H]2c2ccc(CO)cc2)cc1 | Human papillomavirus type 1a protein E7 (residues 44-93) | Not fulfilled |
| [N-]=[N+]=NCc1ccccc1[C@H]1OC(c2ccc(OCCCO)cc2)=N[C@@]1(Cc1ccccc1)C(=O)NCC(O)CO (stereo partly drawn) | Human papillomavirus type 1a protein E7 (residues 44-93) | Fulfilled |
| [N-]=[N+]=Nc1ccccc1C[C@]1(C(=O)N2CCCCC2)N=C(c2ccc(OCCCO)cc2)O[C@H]1c1ccccc1N=[N+]=[N-] | Human papillomavirus type 1a protein E7 (residues 44-93) | Fulfilled |
| CO[C@H]1O[C@H](CO)[C@@H](OC(=O)Nc2ccccc2-c2ccccc2)[C@H](OC(=O)Nc2ccccc2-c2ccccc2)[C@H]1OC(=O)Nc1ccccc1-c1ccccc1 | Human papillomavirus type 1a protein E7 (residues 44-93) | Fulfilled |
| CCOC(=O)C1=CC[C@@H](c2ccccc2)N(S(=O)(=O)c2ccc(C)cc2)[C@H]1c1ccc(C#N)cc1 | Human papillomavirus type 1a protein E7 (residues 44-93) | Fulfilled |
| CCN(CC)c1ccc(N2CC=CC34O[C@@H]5C=CCOC(=O)[C@@H]5[C@H]3C(=O)N(CCCCCO)[C@@H]4C2=O)cc1 (stereo partly drawn) | Human papillomavirus type 1a protein E7 (residues 44-93) | Not fulfilled |
| Cc1ccc(S(=O)(=O)N2CC(C(=O)O)=CCC2c2ccccc2)cc1 (stereo not drawn) | Human papillomavirus type 1a protein E7 (residues 44-93) | Fulfilled |

---

molecular target: E3 ubiquitin-protein ligase XIAP (Homo sapiens); assay: small molecules binding XIAP protein – biophysical, small-molecule microarray, fluorescence 635 nm, primary screen (AID 1181); settings: higher = more signal;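 note: score merges 667 nm emission and signal to noise over triplicate slides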

| compound | assayedSystem | composite z-score |
| --- | --- | --- |
| CC(=O)NCCCC[C@@H]1NC(=O)[C@@H]2C[C@H](C(=O)NCCCCCC[N+](C)(C)C)[C@H](c3cccc(OCCO)c3)N2C1=O | E3 ubiquitin-protein ligase XIAP (Homo sapiens) | -0.36 |
| C=CC[C@@]1(C(=O)NCc2ccccc2)N=C(c2ccc(OCCCO)cc2)O[C@@H]1c1ccccc1CN=[N+]=[N-] | E3 ubiquitin-protein ligase XIAP (Homo sapiens) | 0.404 |
| CCCC[C@@H]1C[C@H]1[C@@H](NC(=O)c1ccccc1)c1ccccc1 | E3 ubiquitin-protein ligase XIAP (Homo sapiens) | -0.0289 |
| COc1ccc([Si](C)(C)[C@@H]2[C@@H](CCO)O[C@]3(C(=O)N(Cc4ccc(N5C(=O)c6cccc7cccc5c67)cc4)c4ccccc43)[C@H]2C)cc1 | E3 ubiquitin-protein ligase XIAP (Homo sapiens) | 0.0623 |
| C=CCC(OC(C)=O)[C@@H]1[C@@H](N(Cc2ccc(-c3cccc(C(F)(F)F)c3)o2)C(=O)Cc2ccc(OC)cc2)c2cc(OCCCO)ccc2N1C(=O)Cc1ccc(OC)cc1 (stereo not given in full) | E3 ubiquitin-protein ligase XIAP (Homo sapiens) | -0.0879 |

---

biological target: Left-right determination factor 2 (Homo sapiens) (UniProt O00292); experiment: small molecules binding LEFTY2 protein – biochemical, small-molecule microarray, 635 nm fluorescence scan, primary screen (AID 1110); conditions: higher = more signal
Sequence (O00292 whole entry, looked up): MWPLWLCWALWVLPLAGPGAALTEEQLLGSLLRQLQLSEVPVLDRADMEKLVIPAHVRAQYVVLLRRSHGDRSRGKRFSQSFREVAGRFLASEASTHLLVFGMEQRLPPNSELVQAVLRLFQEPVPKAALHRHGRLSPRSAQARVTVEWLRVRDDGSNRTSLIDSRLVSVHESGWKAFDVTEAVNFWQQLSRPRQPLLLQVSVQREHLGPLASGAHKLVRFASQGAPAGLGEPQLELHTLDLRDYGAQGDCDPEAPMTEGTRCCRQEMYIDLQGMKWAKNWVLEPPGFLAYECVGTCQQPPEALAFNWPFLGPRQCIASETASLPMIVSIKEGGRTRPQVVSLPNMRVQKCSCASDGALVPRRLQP
Measured composite z-score accompanies every entry in the list below.

| molecule | assayedSystem | composite z-score |
| --- | --- | --- |
| C=C(C)[C@@H]1CC=C(C(O)C2C=CC3C(=O)N(Cc4ccccc4)C(=O)C3N2n2cnnc2)CC1 (some centres undefined) | Left-right determination factor 2 (Homo sapiens) (UniProt O00292) | -0.485 |
| COC(=O)[C@@]1(Cc2ccc(F)cc2)[C@H]2c3cc(C(=O)N4CCCC4)n(Cc4ccc(Cl)c(C(F)(F)F)c4)c3C[C@H]2CN1C(=O)c1ccccc1 | Left-right determination factor 2 (Homo sapiens) (UniProt O00292) | 0.04 |
| CCCC[C@@H]1C[C@H]1[C@@H](NC(=O)c1ccccc1)c1ccc(-c2ccccc2)cc1 | Left-right determination factor 2 (Homo sapiens) (UniProt O00292) | 0.0692 |
| CC(C)CNC(=O)[C@@]1(C)c2ccccc2C(=O)N(C(C)C)[C@H]1c1ccc(CO)cc1 | Left-right determination factor 2 (Homo sapiens) (UniProt O00292) | -0.243 |

---

assay: viability profiling in MM1S myeloma cells – cell-based, resazurin fluorescence, basal, 24 h, PK04 Diversity Set, profiling panel (AID 1174); conditions: higher = more signal, called active from +8 up or from −8 down;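 note: MM1S multiple myeloma cell line; test concentration not given here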
Measured z-score accompanies every entry in the list below.

| chemSmiles | z-score |
| --- | --- |
| C=CC[C@@]1(C(=O)NCc2ccccc2)N=C(c2ccc(OCCCO)cc2)O[C@@H]1c1ccccc1CN=[N+]=[N-] | -1.89 |
| C=C(CCCC)C(=O)CC[C@H](OC(C)=O)c1ccc(CO)o1 | 0.982 |
| C=CCNC(=O)[C@@H]1[C@H]2C(=O)O[C@H](c3ccccc3)[C@H](c3ccccc3)N2[C@H](c2ccccc2OCCO)[C@@]12C(=O)N(C(=O)OCCOC)c1ccc(C#CCC(C(=O)OC)C(=O)OC)cc12 | -1.69 |
| O=c1cccc(-c2cccc3ccccc23)o1 | -0.0171 |
| O=[N+]([O-])c1ccc(C[n+]2ccc(CCCO)cc2)o1 | -1.27 |

---

Measured z-score accompanies every entry in the list below.
assay: Pseudomonas biofilm growth suppression – PAO1 strain, BacTiter-Glo luminescence, LB-PBS, primary screen (AID 1144); conditions: P. aeruginosa PAO1 biofilm, 12 h, higher = more signal

| compound | z-score |
| --- | --- |
| COCCn1c(C(=O)N2CCCC2)cc2c1C[C@H]1CN(C(=O)c3ccccc3)[C@@](Cc3ccc(OC)cc3)(C(=O)OC)[C@@H]21 | -0.2 |
| CN1C(=O)C2C=CC(C(O)c3ccccc3)N(NC(=O)OC(C)(C)C)C2C1=O (stereo not drawn) | 0.316 |
| C=CCOC(=O)[C@H]1[C@@H]2C(=O)O[C@@H](c3ccccc3)[C@@H](c3ccccc3)N2[C@@H](c2ccc(OCCOC(=O)[C@@H]3C[C@@H]4C(=O)NCC(=O)N4[C@@H]3c3ccc(O)cc3)cc2)[C@]12C(=O)Nc1ccc(I)cc12 | 0.183 |

---

assay: compounds binding Alexa647 anti-His antibody – biochemical, small-molecule microarray, 635 nm fluorescence, artefact control for SMM control protein annotation, primary screen (AID 1128); details: higher = more signal;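 note: score merges feature fluorescence with signal-to-noise for each printed compound spot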

| compound | composite z-score |
| --- | --- |
| C=C(CCCC)/C(=C/C[C@@H](OC(=O)c1ccncc1)c1ccc(CO)o1)c1cc(C(=O)OC)ccc1OC | 1.94 |
| COc1ccccc1CN1C(=O)c2ccccc2[C@](Cc2ccccc2I)(C(=O)NCc2ccccc2)[C@@H]1c1ccc(CO)cc1 | -0.0448 |
| Cc1ccc(C(C)CC(O)C2C=CC3C(=O)NC(=O)C3N2Nc2ccccn2)o1 (configuration not stated) | 1.17 |
| C=C(/C(=C/C[C@@H](OC(C)=O)c1ccc(CO)o1)c1cnc2ccccc2c1)C(C)C | 0.452 |
| C[C@]1(C(=O)NCC(F)(F)F)c2ccccc2C(=O)N(Cc2cc(F)cc(C(F)(F)F)c2)[C@H]1c1ccc(CO)cc1 | -0.99 |
| C=CCN1Cc2ccccc2C[C@]2(N=C(c3ccc(OCCCO)cc3)O[C@@H]2c2ccccc2)C1=O | 1.66 |
| [N-]=[N+]=NCc1ccccc1C[C@]1(C(=O)NCc2ccccc2)COC(c2ccc(OCCCO)cc2)=N1 | 0.519 |
| C=C(CCCC)/C(=C/C[C@H](OC(C)=O)c1ccc(CO)o1)c1cc(C(=O)OC)ccc1OC | 0.683 |
| CC(C)N1C(=O)c2ccccc2[C@](C)(C(=O)NCCCN(C)C)[C@@H]1c1ccc(CO)cc1 | -0.439 |
| COc1cc2c(cc1O)C(c1ccc(CN3CCCC3)cc1)N(Cc1sc3ccccc3c1Cl)CC2 (configuration not stated) | 0.423 |
| O=[N+]([O-])c1ccc(C[n+]2ccc(CCCO)cc2)o1 | -0.0383 |
| C=C[C@H](OC)[C@@H](OC(=O)Nc1ccc(SC)cc1)c1ccc(OCCO)cc1 | 3.12 |
